The following compounds are shown together with reported HiliSlope values.
Test system: RS4; 11 cells transfected shRNA control vector
Experiment: Cell growth inhibition by WST assay, shRNA control cells
Assay type: cell-based
Settings: RS4;11 sh Control; 4 days

• O=C(O)c1ccc(NC(=O)[C@@H]2NC3(CCCCC3)[C@@]3(C(=O)Nc4cc(Cl)ccc43)[C@H]2c2cccc(Cl)c2F)cc1 [Cpd. A, reference compound] = −1.155

Prompt line: Look up HiliSlope for this compound: O=C1CCC(N2C(=O)c3cccc(NCCOCCOCCOCCNC(=O)c4ccc(NC(=O)[C@@H]5NC6(CCCCC6)[C@@]6(C(=O)Nc7cc(Cl)ccc76)[C@H]5c5cccc(Cl)c5F)cc4)c3C2=O)C(=O)N1 (stereo partly drawn) [Cpd. No. 15]
Response line: −1.626

Prompt line: Look up HiliSlope for this compound: COCCONC(=O)c1ccc(NC(=O)[C@@H]2NC3(CCCCC3)[C@@]3(C(=O)Nc4cc(Cl)ccc43)[C@H]2c2cccc(Cl)c2F)cc1 [Cpd. B, reference compound]
Response line: −0.9620

---

The following compounds are shown together with reported HiliSlope values.
Test system: RS4; 11 cells transfected shRNA control vector
Assay: Cell growth inhibition by WST assay, shRNA control cells
Format: cell-based
Conditions: RS4;11 sh Control; 4 days
Answer field: number only, no words.

Examples with their reported HiliSlope follow.
* O=C1CCC(N2Cc3c(NCCOCCOCCOCCNC(=O)c4ccc(NC(=O)[C@@H]5NC6(CCCCC6)[C@@]6(C(=O)Nc7cc(Cl)ccc76)[C@H]5c5cccc(Cl)c5F)cc4)cccc3C2=O)C(=O)N1 (stereo partly drawn) [Cpd. No. 22] | −1.567
* O=C1CCC(N2Cc3c(NCCOCCOCCNC(=O)c4ccc(NC(=O)[C@@H]5NC6(CCCCC6)[C@@]6(C(=O)Nc7cc(Cl)ccc76)[C@H]5c5cccc(Cl)c5F)cc4)cccc3C2=O)C(=O)N1 (stereo partly drawn) [Cpd. No. 21] | −1.448

Next, consider the following compound.
Prompt line: Requested read-out HiliSlope, target or system RS4; 11 cells transfected shRNA control vector, entry O=C1CCC(N2C(=O)c3cccc(NCCOCCOCCNC(=O)c4ccc(NC(=O)[C@@H]5NC6(CCCCC6)[C@@]6(C(=O)Nc7cc(Cl)ccc76)[C@H]5c5cccc(Cl)c5F)cc4)c3C2=O)C(=O)N1 (stereo partly drawn) [Cpd. No. 14]
Response line: −1.475

---

Tested on: RS4; 11 cells transfected shRNA control vector
Assay: Cell growth inhibition by WST assay, shRNA control cells
Assay type: cell-based
Conditions: Homo sapiens, 96 h; RS4;11 sh Control; 4 days
The following compounds are shown together with reported pIC50 values.
Answer as the number alone; pIC50 is minus log10 of concentration in mol/L.

Examples with their reported pIC50 follow.
• O=C1CCC(N2Cc3c(NCCOCCOCCNC(=O)c4ccc(NC(=O)[C@@H]5NC6(CCCCC6)[C@@]6(C(=O)Nc7cc(Cl)ccc76)[C@H]5c5cccc(Cl)c5F)cc4)cccc3C2=O)C(=O)N1 (stereo partly drawn) [Cpd. No. 21] = 7.88
• O=C1CCC(N2C(=O)c3cccc(NCCOCCOCCNC(=O)c4ccc(NC(=O)[C@@H]5NC6(CCCCC6)[C@@]6(C(=O)Nc7cc(Cl)ccc76)[C@H]5c5cccc(Cl)c5F)cc4)c3C2=O)C(=O)N1 (stereo partly drawn) [Cpd. No. 14] = 8.01

Next, consider the following compound.
Prompt line: Look up pIC50 for this compound: COCCONC(=O)c1ccc(NC(=O)[C@@H]2NC3(CCCCC3)[C@@]3(C(=O)Nc4cc(Cl)ccc43)[C@H]2c2cccc(Cl)c2F)cc1 [Cpd. B, reference compound]
Response line: 7.07
